Values were extracted from patent US20220195023A1.

Give pKd for every item shown.
# TARGET_UNDER_TEST: … (Plasmodium falciparum)
# EXPERIMENTAL_DETAILS: SPR, antibody on chip
One number for each entry, as −log10 of the molar value.

BINDER: AB-007030 (antibody, V domains shown) VH: QMQLVESGGGVVQPGRSLRLSCTASGFTFSTYAMHWVRQSPGQGLEWVAVISYHSTNKYYADSVRGRFTISRDNSKNTLYLQMNSLRAEDTAVYYCARDGYSSSFFDFWGQGTLVTVSS VL: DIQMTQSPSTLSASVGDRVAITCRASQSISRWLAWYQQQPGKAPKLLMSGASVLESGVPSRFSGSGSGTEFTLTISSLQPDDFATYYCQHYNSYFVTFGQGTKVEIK
pKd: 5.19
//
BINDER: AB-007041 (antibody, V domains shown) VH: QMQLVESGGGVVQPGRSLRLSCTASGFTFSDYAMHWVRQSPGQGLQWVAVISYHSTNKYYEDSVRGRFTISRDNSKNTLYLQMNSLRAEDTAVYYCARDGYSSSFFDFWGQGTLVTVSS VL: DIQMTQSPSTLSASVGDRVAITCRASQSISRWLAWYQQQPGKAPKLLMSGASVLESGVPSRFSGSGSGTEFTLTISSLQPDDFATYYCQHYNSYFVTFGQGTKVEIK
pKd: 5.60

Kindly consider the entry below.
Task: # get_value(readout='pKd', item= AB-007047 (antibody, V domains shown) VH: QMQLVESGGGVVQPGRSLRLSCTASGFTFSNYAMHWVRQSPGQGLQWVAVISYHSTNKYYEDSVRGRFTISRDNSKNTLYLQMNSLRAEDTAVYYCARDGYSSSFFDFWGQGTLVTVSS VL: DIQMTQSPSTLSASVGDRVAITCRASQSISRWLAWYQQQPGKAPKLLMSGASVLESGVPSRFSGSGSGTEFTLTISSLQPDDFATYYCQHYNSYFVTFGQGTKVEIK )
Output: 5.03
